Assay: qHTS Assay for Lipid Storage Modulators in Drosophila S3 Cells
Details: BODIPY lipid droplet fluorescence, 18-24 h, cells fed with added oleic acid; series mostly up to 46.1 µM
Screen size: about 320,000 compounds; about 2,100 (0.66%) were called active. Roughly 53% stayed inconclusive and do not appear here. Calls come from the whole dose curve; as a rule, active = well fitted inhibition curve with a large enough effect in the signal ratio, with a control signal flat (not every such curve was filed as active); inconclusive = small, poorly fitted or top-dose-only effect, or effect the other way, or a change in a side signal; inactive = flat fitted curve, though single readings scatter; the % refers to the signal ratio. The sample holds actives, similar compounds and a random draw of the others, so the mix is not that of the screen.
I would appreciate it if you answered using one of these outcomes: active, inactive

Take a look at these entries with their results.
{"compound": "O=P(O)(OCc1ccccc1)OCc1ccccc1", "answer-label": "inactive"}
{"compound": "CCCC(=O)CN1C(=O)C2(OCCO2)c2ccccc21", "answer-label": "inactive"}
{"compound": "CCOC(=O)CN1C(=O)C2(OCCCO2)c2cc(Br)ccc21", "answer-label": "inactive"}

With those in mind, consider the next compound.
Could you kindly confirm the outcome this assay logged for CCOc1ccc(NC(=O)Nc2cccc(C(=O)O)c2)cc1 ?
inactive
